test system: MALME-3M melanoma; assay: NCI tumour cell line growth inhibition, 48 h
parameter-measured: TGI (µM)
API: value field is a number in µM; no unit string.

Guide cases for TGI, answers given:
molecule=O=C(N/N=C\c1cc(Br)ccc1O)c1ccncc1 parameter_measured=TGI assay_value=78.5
molecule=O=C(CN(C1CCCCC1)C1CCCCC1)Nc1ccc(S(=O)(=O)c2ccc(NC(=O)CN(C3CCCCC3)C3CCCCC3)cc2)cc1 parameter_measured=TGI assay_value=1.3

Now look at this entry.
-- ask // TGI lookup, key: `O=C(O)c1nc(-c2ccccn2)c(-c2ccccn2)nc1C(=O)O`
-- reply 7.85

###

test system: RPMI-8226 leukemia; experiment: NCI tumour cell line growth inhibition, 48 h
Measured TGI of individual entries

-- ask Consider the compound shown here: `CN(C)C(=O)NCCN1CCCCCc2ccccc21` What is its recorded TGI?
-- reply > 100 µM

-- ask # query: TGI of entry `O=C1c2ccn(CCCCNC(CO)(CO)CO)c2C(=O)c2c1c(O)c1ccccc1c2O`
-- reply 11 µM

-- ask Could you share which TGI value was measured for `N#Cc1sc2nc(/C=C3/C=CC=CC3=O)c(O)n2c1N` ?
-- reply 81.2 µM

-- ask Record request: TGI value, item `O=C(O)c1c(-c2nccc3ccccc23)[nH]c(-c2ccccc2)c1S(=O)(=O)O`
-- reply > 100 µM

-- ask Please report the recorded TGI for `Cc1cn2c(/C=C3/C(=O)Nc4ccccc43)c(-c3ccc(Cl)cc3)nc2s1` .
-- reply 39.2 µM

-- ask I have this compound here, `N#CSc1nc[nH]c1C(N)=O` , and I need its recorded TGI.
-- reply 44.7 µM

-- ask Which TGI is reported for this compound? `Cc1cn2c(=O)c3ccccc3nc2s1`
-- reply > 100 µM

-- ask # query: TGI of entry `CC(=O)Oc1ccc(Nc2c3ccccc3nc3ccccc23)cc1`
-- reply 23.7 µM

-- ask Quick one: TGI of CC(=O)OCC1OC([S-])C(OC(C)=O)C(OC(C)=O)C1OC(C)=O.CC[PH+](CC)CC.CC[PH+](CC)CC.[Au].[Au] (stereo not drawn) ?
-- reply 0.761 µM

###

tested on: T-47D breast; assay: NCI tumour cell line growth inhibition, 48 h
Consider the following compounds and their measured TGI readings.
Write the value in µM as a bare number.

-- ask Fill blank: measured TGI of the compound `CO[C@H]1[C@@H](O)[C@@H](C)O[C@@H](O[C@H]2CC[C@@]3(C)[C@H](CC[C@@H]4[C@@H]3CC[C@]3(C)[C@@H](C5=CC(=O)OC5)[C@@H](OC(C)=O)C[C@]43O)C2)[C@@H]1O` is ____.
-- reply 0.435

-- ask Would you mind telling me what TGI value was observed for `O=C(O)c1nc(-c2ccccn2)c(-c2ccccn2)nc1C(=O)O` ?
-- reply 24.1

-- ask Look up TGI for this compound: `OCCCCC#Cc1ccccc1C#Cc1cccc(O)c1`
-- reply 34.7

-- ask Query (compound): `CC(=O)Oc1ccc(Nc2c3ccccc3nc3ccccc23)cc1` ; field requested: TGI
-- reply 7.23

-- ask For the compound shown here, `Cc1[nH]n(-c2cccc(Cl)c2)c(=O)c1/C=C1\C=Nc2ccc(Br)cc21` , give the reported TGI.
-- reply 6.26

###

test system: ACHN renal; assay: NCI tumour cell line growth inhibition, 48 h
Catalogue of compounds with associated TGI

compound=Cc1cc(C)n(CCNCCn2nc(C)cc2C)n1 assay_value="> 100 µM"
compound=CC1=NC(=Cc2ccc(O)cc2)C(=O)N1n1c(-c2ccccc2)nc2ccccc2c1=O assay_value="> 100 µM"
compound=COC1=C(Br)[C@H](O)[C@@]2(C=C1Br)CC(C(=O)NCCCCCN=C(N)N)=NO2 assay_value="> 10 µM"
compound=CC1=C(C(=O)Nc2c(C)cccc2C)C(c2ccccc2Cl)C(C(=O)Nc2c(C)cccc2C)=C(C)N1 assay_value="> 100 µM"
compound="O=C(O)c1cc(O)c2c(c1)C(C1c3cc(C(=O)O)cc(O)c3C(=O)c3c(OC4OC(CO)C(O)C(O)C4O)cccc31)c1cccc(OC3OC(CO)C(O)C(O)C3O)c1C2=O (configuration not stated)" assay_value="> 100 µM"
compound=O=C(O)c1cccc(OCCO)c1 assay_value="> 100 µM"

-- ask So what does the record say about TGI for `Nc1nc(Cl)cc(NCCO)n1` ?
-- reply > 100 µM

-- ask Given the entry `Nc1nc(Nc2ccccc2)c2ncn(Cc3cc4c(cc3Br)OCO4)c2n1` , report its measured TGI.
-- reply 30.4 µM

-- ask Sample `Cc1c[n+](Cc2ccc3ccccc3c2)cn1Cc1ccc2ccccc2c1` — what was its TGI?
-- reply 19.4 µM

-- ask Name the reported TGI value associated with the compound `O=C(/C=C/c1ccccc1)/C=C/c1ccccc1`
-- reply 38.2 µM

-- ask Name the reported TGI value associated with the compound `CNC(=S)N/N=C(C)\C(=N/NC(=S)NC)c1ccccc1`
-- reply > 100 µM

-- ask Reported TGI, compound CC1=CC(C2/C(=N/O)C=C(C)CC2(C)C)C(O)C(C)(C)C1 (configuration not stated) : ____
-- reply 34 µM

-- ask What TGI value was documented for this compound, `O=C(C[n+]1ccccc1)NNC(=O)/C(=C/c1ccc2c(c1)OCO2)NC(=O)c1ccccc1` ?
-- reply > 100 µM

-- ask Would you kindly share the measured TGI for `COc1cc2cn3c4ccc(O)cc4[nH]c(=O)c3c2cc1OC` ?
-- reply 1.61 µM

-- ask Entry `c1cc(-c2ncc(-c3ccc4c(c3)CCCO4)o2)ccn1` has what TGI?
-- reply > 100 µM

-- ask Which TGI is reported for this compound? `COc1ccccc1NC(=O)C1=C(C)NC(C)=C(C(=O)Nc2ccccc2OC)C1c1ccc([N+](=O)[O-])cc1`
-- reply > 100 µM

-- ask Look up TGI: `Cc1cn2c(=O)c3ccccc3nc2s1`
-- reply > 100 µM

-- ask # input compound: `CN(C)Cc1c[nH]c2c1C(=O)c1c(c(O)c3ccccc3c1O)C2=O` ; wanted: its TGI
-- reply 20.1 µM

-- ask Find the recorded TGI belonging to N#CC(/C(=N/NC(=O)C(=O)NN)C(=O)NC12CC3CC(CC(C3)C1)C2)c1ccccc1 (configuration not stated) and report it.
-- reply > 100 µM

-- ask # lookup: TGI of `CCN(CC)/C(Cl)=C(Cl)\C(=C1\Nc2ccc(OC)cc21)[N+](=O)[O-]`
-- reply > 100 µM

-- ask Can you look up the measured TGI of CN1CCOC1(C)CO (configuration not stated) for me?
-- reply > 100 µM

-- ask # lookup: TGI of Cc1cn(C2CC(N(O)Cc3ccccc3)C(CO)O2)c(=O)[nH]c1=O (configuration not stated)
-- reply > 100 µM

###

system: BT-549 breast; assay: NCI tumour cell line growth inhibition, 48 h; in the data active means GI50 below about 0.43 µM; inactive means the rest
Response enum: active, inactive

molecular_string=CC(=O)O[C@@H]1C[C@]2(C(C)C)O[C@@]1(C)[C@@H]1CCC(C)=C1[C@@H]2OC(=O)/C=C/c1ccccc1 assigned_label=inactive
molecular_string=CC(=O)c1c(CBr)n([O-])c2ccccc2[n+]1=O assigned_label=inactive
molecular_string=COc1ccc(-n2cc(-c3ccc(Cl)c(Cl)c3)nc2SCc2cccc(C#N)c2)cc1 assigned_label=inactive
molecular_string=Nc1nc(Nc2ccccc2)c2ncn(Cc3cc4c(cc3Br)OCO4)c2n1 assigned_label=active
molecular_string=Cc1ccc(Nc2nc(N)c(C(=O)c3ccc(C#N)cc3)s2)cc1 assigned_label=inactive
molecular_string=COc1cc(/C=C2\C(=O)Nc3ccc(F)cc32)cc(OC)c1OC assigned_label=inactive
molecular_string=Nc1ccncc1/C=C1/C(=O)Nc2ccccc21 assigned_label=inactive
molecular_string=O=c1[nH]c2cc(Cl)ccc2n1C1CCN(CCCC(c2ccc(F)cc2)c2ccc(F)cc2)CC1 assigned_label=inactive

-- ask Dear colleague, could you share the recorded outcome for `CN(C)Cc1c[nH]c2c1C(=O)c1c(c(O)c3ccccc3c1O)C2=O` when you have a moment?
-- reply inactive

-- ask For `c1ccc2c3ccn4cc5c(cc4c-3nc2c1)CCCC5` , which call appears in the assay record?
-- reply inactive

-- ask For `OCCCCC#Cc1ccccc1C#Cc1cccc(O)c1` , which call appears in the assay record?
-- reply inactive

###

tested on: 786-0 renal; experiment: NCI tumour cell line growth inhibition, 48 h
Overview of reported TGI across a group of compounds:

Some compounds with recorded TGI:
compound=N#Cc1sc2nc(/C=C3/C=CC=CC3=O)c(O)n2c1N parameter_measured=TGI assay_value="> 100 µM"
compound=O=C(CCC(=O)Nc1cccc(Cl)c1)CC(=O)c1ccc(Cl)cc1 parameter_measured=TGI assay_value="> 100 µM"
compound=N#CSc1nc[nH]c1C(N)=O parameter_measured=TGI assay_value="98.8 µM"
compound="CC12CCC(C(=O)OC1=O)C2(C)C (stereo not drawn)" parameter_measured=TGI assay_value="> 100 µM"
compound="Cc1ccc(S(=O)(=O)C2=Cc3ccc(C(F)(F)F)cc3C2(O)c2cccc(C(F)(F)F)c2)cc1 (stereo not drawn)" parameter_measured=TGI assay_value="3.96 µM"
compound=C=CCn1c(=O)n(CC=C)c(=O)n(CC=C)c1=O parameter_measured=TGI assay_value="> 100 µM"
compound="CN1CCOC1(C)CO (stereo not drawn)" parameter_measured=TGI assay_value="> 100 µM"
compound="Cc1cn(C2CC(ON3C(=O)c4ccccc4C3=O)C(CO)O2)c(=O)[nH]c1=O (stereo not drawn)" parameter_measured=TGI assay_value="> 10 µM"
compound=NC(N)=N/N=C/c1cc(Cl)cc(Cl)c1O parameter_measured=TGI assay_value="> 100 µM"
compound=COc1ccccc1/C=C/c1cnccn1 parameter_measured=TGI assay_value="> 10 µM"

-- ask GET /values?readout=TGI&item= `CC(=O)Oc1ccccc1C(=O)N=C1[Se]CCCN1C(=O)c1ccccc1OC(C)=O`
-- reply 4.21 µM

-- ask Which TGI is reported for this compound? `O=C(/C=C/c1ccccc1)/C=C/c1ccccc1`
-- reply 85.5 µM

-- ask Fill blank: measured TGI of the compound `COC1=C(Br)[C@H](O)[C@@]2(C=C1Br)CC(C(=O)NCCCCCN=C(N)N)=NO2` is ____.
-- reply > 10 µM

-- ask TGI for `CCOC(=O)C1(C(=O)OCC)CN(CC)CN(c2ccccc2)C1` ?
-- reply 35.2 µM

-- ask Using the record for `Cc1sc2nc(NCCc3c[nH]c4ccc(Cl)cc34)[nH]c(=O)c2c1C` , report its TGI.
-- reply 6.23 µM

-- ask Need TGI of `Cc1ccc(Nc2nc(N)c(C(=O)c3ccc(C#N)cc3)s2)cc1` , thanks.
-- reply > 49.8 µM

-- ask Record request: TGI value, item `CC(=O)c1sc2c(c1OC(=O)c1cccs1)c(=O)n(-c1ccccc1)c(=S)n2-c1ccccc1`
-- reply 15.5 µM

-- ask Would you mind telling me what TGI value was observed for `O=C(O)c1ccccc1-c1ccccc1C(=O)Nc1ccc2c(c1)Cc1cc(F)ccc1-2` ?
-- reply > 100 µM

-- ask Report TGI for `c1ccc2c3ccn4cc5c(cc4c-3nc2c1)CCCC5` please.
-- reply 13.5 µM

-- ask // query TGI value for entry `CN1CCc2c(Sc3ccc(C(=O)NO)cc3)c3ccccc3n2C1`
-- reply 15.3 µM

-- ask Fill in: TGI of COc1ccc(/C=c2/sc3n(c2=O)C(c2ccc(OC)c(OC)c2)C2=C(N=3)c3cc(F)ccc3OC2)cc1 (stereo not drawn) is ___
-- reply > 100 µM

-- ask Returns the measured TGI for the input compound. Input: `CC1=C(C(=O)Nc2c(C)cccc2C)C(c2ccccc2Cl)C(C(=O)Nc2c(C)cccc2C)=C(C)N1`
-- reply > 100 µM

-- ask Look up TGI: `Cc1ccc2nc(-c3ccc(N)c(I)c3)sc2c1`
-- reply 32.7 µM

Measured values drawn from PubChem BioAssay (NCI) for this set.
